measuredOn: T1, human plasma Kallikrein (human, UniProt P03952 20-638)
T1 construct: also called hPK; human PK
testSummary: phage binding assay
Numbered stars: 1 amine (or outer) side, 2 acyl side, 3 side chain; on linkers, the order of the positions; unused ones are H or OH. Bridge positions count the residues as written; N and C are the ends. Ends that are not written are not given here. TBMB = c1c(C[*:1])cc(C[*:3])cc1C[*:2]
For each entry below, report its RANK (Kallikrein binding) value.
One number for each entry.

Use these answered entries as a reference point.
{"columns": ["binder", "measuredParameter", "value"],
 "data": [
  ["CSHPYRCTHQDLC (linker 1-7-13 via TBMB (inferred), on phage)", "RANK (Kallikrein binding)", 8],
  ["CSFPWRCTHQDLC (linker 1-7-13 via TBMB (inferred), on phage)", "RANK (Kallikrein binding)", 23]
]}

Now let's try a different one.
## Input Suppose we examine the binder CSWHARCTHQDLC (linker 1-7-13 via TBMB, on phage) ; what RANK (Kallikrein binding) value has been reported?
## Output 24
